system_under_test: T1, h-FAP-His (human, UniProt Q12884 26-760)
T1 construct: range 26-760; Bought recombinant protein with a His tag; also called human FAP-His protein; FAP recombinant protein with a His tag
assay_info: SPR, antibody captured by anti-human IgG Fc, h-FAP-His analyte
readout_type: koff (s⁻¹)
Numbers only here, please. The scale is s⁻¹.

Any idea what its koff is? The binder is Ab9 (antibody, human IgG1, kappa, L234A L235A, V domains shown, Fully human, IgG1 / kappa; also called anti-FAP antibody Ab9) VH: QMQLVQSGAEVKKPGASVTVSCRASGYSFADHFIHWVRQAPGQGFQWMGWINPNRGVTHHAQDFQGRVAMTRDMSTDTVYMELTSLRSDDTAVYYCARDESLTARPYYFYGFDVWGQGTLVTVSS VL: DIQMTQSPSSVSASVGDRVTITCRASQGISSWLAWYQQKPGKAPKLLIYAASSLQSGVPSRFSGSGSGTDFTLTISSLQPEDFATYYCQQANSFPPAFGQGTKVEIKR 7.19e-05
